Recorded values, source patent US20260008760A1.

# Lookup of reported inhibition at 0.01 µM keyed by entry
Biological target: human DPP1 enzyme (Homo sapiens)
Sequence (P53634 25-463): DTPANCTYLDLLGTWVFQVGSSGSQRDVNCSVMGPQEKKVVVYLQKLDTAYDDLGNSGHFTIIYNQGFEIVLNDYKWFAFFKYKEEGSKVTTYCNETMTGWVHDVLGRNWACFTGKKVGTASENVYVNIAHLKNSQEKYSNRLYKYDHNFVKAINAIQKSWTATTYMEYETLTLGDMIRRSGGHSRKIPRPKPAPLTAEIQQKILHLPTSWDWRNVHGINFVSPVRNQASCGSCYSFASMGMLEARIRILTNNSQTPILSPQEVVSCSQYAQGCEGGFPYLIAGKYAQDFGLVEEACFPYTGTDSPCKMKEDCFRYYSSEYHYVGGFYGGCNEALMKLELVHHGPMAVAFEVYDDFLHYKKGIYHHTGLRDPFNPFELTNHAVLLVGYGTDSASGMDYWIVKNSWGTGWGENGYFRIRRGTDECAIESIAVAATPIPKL
Test: Human DPP1 Enzyme Single-Point Percent Inhibition Testing (HL-60 lysate)
Type: biochemical
Set-up: A crude lysate of HL-60 cells (ATCC; Manassas, VA) was used as a source of human DPP1 enzyme; host or cells: HL-60 cells (crude lysate)
Conditions: final compound concentration of 10 nM, 400 μM H-Gly-Arg-AMC, n = 1

Cc1cn2cc(-c3ccc(C[C@@H](C#N)NC(=O)[C@@H]4CN[C@@H](C)[C@@H](O)CO4)cc3)cc2c(C)n1 | ≤ 40%

Record N#Cc1ccc2c(c1)-c1cc(F)c(CC(C#N)NC(=O)[C@@H]3CNCCCO3)cc1OC2 (stereo partly shown) , field inhibition at 0.01 µM: ≤ 40%

Record CO[C@H]1CCO[C@H](C(=O)N[C@H](C#N)Cc2ccc(-c3ccc4cnn(C)c4c3)cc2)CNC1 , field inhibition at 0.01 µM: ≤ 40%

Record N#C[C@H](Cc1cc2c(cc1F)-c1cc3c(cc1CO2)COC31CCN(C2COC2)CC1)NC(=O)[C@@H]1CNCCCO1 , field inhibition at 0.01 µM: ≥ 66.7%
